Entry source: patent US11542262B2

# SYSTEM UNDER TEST: PI3Kγ (Homo sapiens)
# Sequence (P48736 whole entry, species assumed): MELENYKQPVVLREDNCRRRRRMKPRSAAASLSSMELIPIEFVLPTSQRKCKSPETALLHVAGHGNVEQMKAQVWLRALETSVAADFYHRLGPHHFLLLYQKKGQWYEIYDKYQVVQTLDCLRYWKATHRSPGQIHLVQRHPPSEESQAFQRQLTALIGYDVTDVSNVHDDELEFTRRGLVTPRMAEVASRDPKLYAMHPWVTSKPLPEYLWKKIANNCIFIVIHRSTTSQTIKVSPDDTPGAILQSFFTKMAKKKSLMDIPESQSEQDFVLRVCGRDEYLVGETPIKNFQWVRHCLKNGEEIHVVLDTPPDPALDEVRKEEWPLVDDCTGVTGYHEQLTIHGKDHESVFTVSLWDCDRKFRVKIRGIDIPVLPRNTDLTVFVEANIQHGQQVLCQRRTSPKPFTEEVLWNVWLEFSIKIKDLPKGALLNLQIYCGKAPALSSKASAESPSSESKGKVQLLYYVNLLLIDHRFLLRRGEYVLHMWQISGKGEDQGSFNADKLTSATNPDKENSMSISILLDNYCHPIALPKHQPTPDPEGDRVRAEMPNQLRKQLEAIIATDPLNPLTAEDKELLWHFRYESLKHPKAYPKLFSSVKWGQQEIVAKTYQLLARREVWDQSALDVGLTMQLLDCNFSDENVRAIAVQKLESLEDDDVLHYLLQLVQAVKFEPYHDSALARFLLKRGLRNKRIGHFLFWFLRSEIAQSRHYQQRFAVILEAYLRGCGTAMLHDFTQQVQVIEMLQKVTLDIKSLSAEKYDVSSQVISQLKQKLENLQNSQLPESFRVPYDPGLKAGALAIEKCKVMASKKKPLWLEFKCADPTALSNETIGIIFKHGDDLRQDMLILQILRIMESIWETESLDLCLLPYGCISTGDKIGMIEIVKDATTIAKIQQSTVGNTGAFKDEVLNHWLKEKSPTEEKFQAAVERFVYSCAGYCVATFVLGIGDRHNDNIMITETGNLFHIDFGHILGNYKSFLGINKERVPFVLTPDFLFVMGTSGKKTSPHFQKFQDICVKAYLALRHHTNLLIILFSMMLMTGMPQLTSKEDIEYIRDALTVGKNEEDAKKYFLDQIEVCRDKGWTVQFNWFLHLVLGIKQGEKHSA
# TEST DETAILS: ADP-Glo luminescent assay, enzymatic activity of PI3K gamma
# Type: biochemical
# RECORDED CONDITIONS: ATP 25 μM; read-out: PI3K gamma (nM) inhibitory activity (IC50)
Assignment: determine reported IC50 for the given compounds.
Write the answer as a number in nM, unit excluded.

Exercise: So what does the record say about IC50 for CC(=O)Nc1nc(C)c(-c2cc3c(c(C(N)=O)n2)C(=O)N([C@@H](C)C2CC2)C3)s1 [Compound 31] ?
Key: 2.3

Exercise: So what does the record say about IC50 for CC(=O)Nc1nc(C)c(-c2cc3c(c(C(C)N4CCOCC4)n2)C(=O)N([C@@H](C)C2CC2)C3)s1 (stereo partly shown) [Compound 55] ?
Key: 1.7

Exercise: So what does the record say about IC50 for CC(=O)Nc1nc(Cl)c(-c2cc3c(c(N4CCOCC4)n2)C(=O)N([C@@H](C)C2CC2)C3)s1 [Compound 53] ?
Key: 1.8

Exercise: So what does the record say about IC50 for CC(=O)Nc1nc(C)c(-c2cc3c(c(S(C)(=O)=O)n2)C(=O)N([C@@H](C)C2CC2)C3)s1 [Compound 19] ?
Key: 1.6

Exercise: So what does the record say about IC50 for CC(=O)Nc1nc(C)c(-c2cc3c(c(OCCO)n2)C(=O)N([C@@H](C)C2CC2)C3)s1 [Compound 50] ?
Key: 1

Exercise: So what does the record say about IC50 for CC(=O)Nc1nc(C)c(-c2cc3c(c(N4CCOCC4)n2)C(=O)N(C(C)C(F)(F)F)C3)s1 (stereo in doubt) [Compound 37] ?
Key: 9

Exercise: So what does the record say about IC50 for CCC(=O)Nc1nc(C)c(-c2cc3c(c(P(C)(C)=O)c2)C(=O)N([C@@H](C)C2CC2)C3)s1 [Compound 2] ?
Key: 3.7

----------
# TEST DETAILS: Pharmacokinetics in dogs
# Type: in vivo
# RECORDED CONDITIONS: male, beagle, dog, plasma, oral, 5 mg/kg, IV bolus at 1 mg/kg and PO at 5 mg/kg, read-out: F (%) oral bioavailability
REPORTED METRIC: bioavailability (%)
Write the answer as a number in %, unit excluded.

Exercise: So what does the record say about bioavailability for CC(=O)Nc1nc(C)c(-c2cc3c(c(NS(C)(=O)=O)n2)C(=O)N([C@@H](C)C2CC2)C3)s1 [Compound 20] ?
Key: 107

----------
Assignment: determine reported IC50 for the given compounds.
# SYSTEM UNDER TEST: PI3Kδ (Homo sapiens, UniProt O00329)
# Sequence (O00329 whole entry, species assumed): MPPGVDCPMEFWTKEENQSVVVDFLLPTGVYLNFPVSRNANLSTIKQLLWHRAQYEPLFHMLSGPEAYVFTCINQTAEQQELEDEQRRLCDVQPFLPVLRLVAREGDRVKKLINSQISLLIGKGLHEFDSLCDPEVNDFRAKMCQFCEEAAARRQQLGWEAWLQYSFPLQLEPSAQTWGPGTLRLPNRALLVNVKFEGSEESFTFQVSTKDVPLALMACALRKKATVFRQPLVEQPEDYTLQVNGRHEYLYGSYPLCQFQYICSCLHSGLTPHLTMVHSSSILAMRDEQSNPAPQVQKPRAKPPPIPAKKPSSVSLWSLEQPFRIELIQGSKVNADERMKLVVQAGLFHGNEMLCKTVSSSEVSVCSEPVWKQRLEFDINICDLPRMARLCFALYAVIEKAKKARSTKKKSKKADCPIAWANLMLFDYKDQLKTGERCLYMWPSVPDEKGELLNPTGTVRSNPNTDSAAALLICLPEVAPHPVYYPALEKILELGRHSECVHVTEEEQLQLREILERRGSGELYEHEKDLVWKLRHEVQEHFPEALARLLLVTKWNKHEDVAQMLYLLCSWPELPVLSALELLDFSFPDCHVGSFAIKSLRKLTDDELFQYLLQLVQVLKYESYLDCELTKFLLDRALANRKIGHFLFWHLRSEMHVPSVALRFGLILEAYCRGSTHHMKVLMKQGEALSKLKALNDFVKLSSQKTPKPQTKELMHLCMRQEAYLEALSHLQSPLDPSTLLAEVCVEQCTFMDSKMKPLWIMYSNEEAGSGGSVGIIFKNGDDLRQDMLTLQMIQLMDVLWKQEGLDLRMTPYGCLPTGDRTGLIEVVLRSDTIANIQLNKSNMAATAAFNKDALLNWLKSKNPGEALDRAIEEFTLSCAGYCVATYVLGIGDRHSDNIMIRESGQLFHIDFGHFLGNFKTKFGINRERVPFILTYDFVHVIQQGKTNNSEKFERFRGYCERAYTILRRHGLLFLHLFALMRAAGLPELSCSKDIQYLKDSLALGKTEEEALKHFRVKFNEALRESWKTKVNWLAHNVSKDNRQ
# Sequence (P27986 whole entry partner, species assumed): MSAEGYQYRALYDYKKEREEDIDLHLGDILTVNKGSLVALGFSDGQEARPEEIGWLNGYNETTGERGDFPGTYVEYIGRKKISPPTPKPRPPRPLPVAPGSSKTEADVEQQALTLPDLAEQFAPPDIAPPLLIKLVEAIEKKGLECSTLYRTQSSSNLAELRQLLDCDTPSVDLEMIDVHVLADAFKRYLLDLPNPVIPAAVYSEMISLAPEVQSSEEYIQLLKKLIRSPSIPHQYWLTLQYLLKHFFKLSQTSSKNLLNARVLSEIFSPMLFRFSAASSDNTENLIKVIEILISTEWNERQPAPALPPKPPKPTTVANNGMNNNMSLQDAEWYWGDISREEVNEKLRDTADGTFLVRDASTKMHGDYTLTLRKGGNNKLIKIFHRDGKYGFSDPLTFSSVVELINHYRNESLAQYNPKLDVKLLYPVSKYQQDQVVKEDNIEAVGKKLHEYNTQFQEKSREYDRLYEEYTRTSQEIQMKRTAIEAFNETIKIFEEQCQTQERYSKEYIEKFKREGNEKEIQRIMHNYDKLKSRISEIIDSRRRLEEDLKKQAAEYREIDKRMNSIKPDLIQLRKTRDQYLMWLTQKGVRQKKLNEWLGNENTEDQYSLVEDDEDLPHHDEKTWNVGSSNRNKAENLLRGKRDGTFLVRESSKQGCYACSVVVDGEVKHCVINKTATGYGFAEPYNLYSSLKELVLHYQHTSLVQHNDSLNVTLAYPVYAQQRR
# TEST DETAILS: ADP-Glo luminescent assay, enzymatic activity of PI3K delta
# Type: biochemical
# RECORDED CONDITIONS: ATP 25 μM; read-out: PI3K delta (nM) inhibitory activity (IC50)
Write the answer as a number in nM, unit excluded.

Exercise: So what does the record say about IC50 for CC(=O)Nc1nc(C)c(-c2cnc3c(c2)CN([C@@H](C)C2CC2)C3=O)s1 ?
Key: 361

Exercise: So what does the record say about IC50 for CC(=O)Nc1nc(C)c(-c2cc3c(c(NS(C)(=O)=O)n2)C(=O)N([C@@H](C)C2CC2)C3)s1 ?
Key: 1170

Exercise: So what does the record say about IC50 for CC(=O)Nc1nc(C)c(-c2cc3c(c(NS(=O)(=O)C4CC4)n2)C(=O)N([C@@H](C)C2CC2)C3)s1 ?
Key: 794
